- Assayed Target: T1, recombinant soluble integrin αvβ3 (UniProt P06756 31-987; P05106 27-718)
- T1 construct: integrin αv subunit, soluble expression construct; integrin β3 subunit, soluble expression construct; PDB 1L5G is the αvβ3 structure used for docking, not necessarily the same limits; also called soluble αvβ3; source: CHO K1 cells, soluble αv and β3 expression constructs, purified (Ni-NTA)
- T1 sequence (P06756 31-987, chain 1 of 2): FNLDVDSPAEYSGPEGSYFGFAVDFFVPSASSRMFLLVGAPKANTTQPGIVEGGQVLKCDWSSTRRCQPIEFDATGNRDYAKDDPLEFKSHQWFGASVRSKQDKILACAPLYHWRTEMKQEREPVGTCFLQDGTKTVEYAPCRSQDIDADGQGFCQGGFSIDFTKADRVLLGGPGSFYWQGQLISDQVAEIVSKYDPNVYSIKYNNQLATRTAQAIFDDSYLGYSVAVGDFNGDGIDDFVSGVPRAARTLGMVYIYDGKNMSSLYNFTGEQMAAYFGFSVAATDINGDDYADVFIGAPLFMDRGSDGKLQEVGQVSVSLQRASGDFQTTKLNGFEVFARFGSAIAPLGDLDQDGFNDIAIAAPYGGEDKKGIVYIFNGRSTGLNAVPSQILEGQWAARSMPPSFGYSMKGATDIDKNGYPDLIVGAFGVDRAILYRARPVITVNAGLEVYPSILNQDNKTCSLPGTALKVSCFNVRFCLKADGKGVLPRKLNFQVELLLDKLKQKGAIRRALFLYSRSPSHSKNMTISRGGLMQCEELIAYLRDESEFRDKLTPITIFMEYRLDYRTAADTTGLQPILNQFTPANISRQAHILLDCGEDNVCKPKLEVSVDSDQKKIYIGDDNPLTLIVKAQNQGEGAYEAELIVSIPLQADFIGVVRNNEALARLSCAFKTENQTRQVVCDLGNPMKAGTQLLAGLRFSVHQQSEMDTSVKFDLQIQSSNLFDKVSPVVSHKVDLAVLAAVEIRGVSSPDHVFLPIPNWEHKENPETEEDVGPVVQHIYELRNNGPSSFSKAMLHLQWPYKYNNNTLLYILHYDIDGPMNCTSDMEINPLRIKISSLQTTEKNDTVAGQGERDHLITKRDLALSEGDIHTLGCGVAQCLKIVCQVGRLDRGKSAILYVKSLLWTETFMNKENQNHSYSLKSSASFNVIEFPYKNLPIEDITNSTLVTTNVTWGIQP
- T1 sequence (P05106 27-718, chain 2 of 2): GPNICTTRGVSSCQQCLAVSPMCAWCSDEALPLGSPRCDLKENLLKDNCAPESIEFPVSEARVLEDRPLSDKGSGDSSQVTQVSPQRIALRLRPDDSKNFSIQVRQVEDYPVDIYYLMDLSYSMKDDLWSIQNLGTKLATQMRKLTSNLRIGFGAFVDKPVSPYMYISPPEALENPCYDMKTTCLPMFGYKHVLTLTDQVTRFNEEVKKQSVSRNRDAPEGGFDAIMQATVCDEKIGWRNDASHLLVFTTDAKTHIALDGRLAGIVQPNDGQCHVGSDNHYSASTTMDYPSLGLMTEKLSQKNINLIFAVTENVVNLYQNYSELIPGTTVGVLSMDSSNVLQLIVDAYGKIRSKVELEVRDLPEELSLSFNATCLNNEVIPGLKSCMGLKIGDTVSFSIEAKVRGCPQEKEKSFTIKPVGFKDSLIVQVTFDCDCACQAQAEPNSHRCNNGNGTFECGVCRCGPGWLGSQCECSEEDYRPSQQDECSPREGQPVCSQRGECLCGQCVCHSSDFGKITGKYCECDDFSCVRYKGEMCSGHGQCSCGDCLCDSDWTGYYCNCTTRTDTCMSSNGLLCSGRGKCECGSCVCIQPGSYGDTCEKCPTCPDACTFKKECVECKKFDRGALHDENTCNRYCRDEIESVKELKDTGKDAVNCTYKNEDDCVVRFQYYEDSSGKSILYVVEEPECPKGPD
- Run Description: SPR; soluble αvβ3 (His-tagged) immobilised on CM5 chip by amine coupling; HBD injected at 50 μL/min for 1.8 min; HBS-P buffer (0.01 M HEPES pH 7.4, 0.15 M NaCl, 0.0005% P20) with 1 mM Mn2+
- Measurement Conditions: both partners purified
Result Type: pKd
Note on units: pKd is unitless, being -log10 of a concentration expressed in mol/L.

Can you share its pKd? I mean this binder: PCGPCSERRKHLFVQDPQTCKCSCKNTDSRCKARQLELNERTCRCDKPRR (domain or fragment, human, Cloned into the BamHI/EcoRI site of pET28a; PDB 2VGH is the HBD structure used for docking; also called VEGF165-HBD; VEGF165 HBD) [VEGF165 heparin-binding domain (HBD), wild type]
6.33
